Test system: E.coli (Ec)
Assay: Broth microdilution MIC against E.coli (Ec)
Assay type: cell-based
Details: Escherichia coli, read-out: E. coli + bicarb 6.25 (MIC)
Structures can show the parent of a compound that is named as a salt.
Parameter MIC: see the listing below.

>  <molecule>
CC(C)(N)C(=O)N1CCN(C(=O)Nc2ccn(-c3ccc4c(c3)CCC(N3CCC(CCN)CC3)C4)c(=O)n2)CC1 (stereo not shown) [Compound 42, hydrochloride salt]

>  <target entity>
E.coli (Ec)

>  <MIC>
< 8 µg/mL

$$$$
>  <molecule>
CC(C)(N)C(=O)N1CCN(C(=O)Nc2ccn(-c3ccc4c(c3)CCC(N[C@H]3CC[C@H](N)C3)C4)c(=O)n2)CC1 (stereo partly shown) [Compound 9, hydrochloride salt]

>  <target entity>
E.coli (Ec)

>  <MIC>
< 8 µg/mL

$$$$
>  <molecule>
CC(C)(N)C(=O)N1CCN(C(=O)Nc2ccn(-c3ccc4c(c3)CCC(N[C@@H]3CC[C@@H](N)C3)C4)c(=O)n2)CC1 (stereo partly shown) [Compound 25, Hydrochloride Salt]

>  <target entity>
E.coli (Ec)

>  <MIC>
< 8 µg/mL

$$$$
>  <molecule>
C[C@](N)(CO)C(=O)N1CCN(C(=O)Nc2ccn(-c3ccc4c(c3)CCC(N[C@H]3CC[C@H](N)C3)C4)c(=O)n2)CC1 (stereo partly shown) [Compound 24, Hydrochloride Salt]

>  <target entity>
E.coli (Ec)

>  <MIC>
< 8 µg/mL

$$$$
>  <molecule>
CC(C)(N)C(=O)N1CCN(C(=O)Nc2ccn(-c3ccc4c(c3)CCC(N[C@H]3C[C@@H](CN)C3)C4)c(=O)n2)CC1 (stereo partly shown) [Compound 44, Hydrochloride Salt]

>  <target entity>
E.coli (Ec)

>  <MIC>
8 to 32 µg/mL

$$$$
>  <molecule>
CC(C)(N)C(=O)N1CCN(C(=O)Nc2ccn(-c3ccc4c(c3)CCC(N[C@H]3C[C@H](CN)C3)C4)c(=O)n2)CC1 (stereo partly shown) [Compound 41, Hydrochloride Salt]

>  <target entity>
E.coli (Ec)

>  <MIC>
< 8 µg/mL

$$$$
>  <molecule>
COC(=O)N[C@H]1CC[C@H](NC2CCc3cc(-n4ccc(NC(=O)N5CCN(C(=O)C(C)(C)N)CC5)nc4=O)ccc3C2)C1 (stereo partly shown) [Compound 45, Hydrochloride Salt]

>  <target entity>
E.coli (Ec)

>  <MIC>
> 32 µg/mL

$$$$

* * *

Test system: E.faecalis (Ef)
Assay: Broth microdilution MIC against E.faecalis (Ef)
Format: cell-based
Conditions: Enterococcus faecalis, read-out: Ef +bicarb 6.25 (MIC)
Counter-ions that a name gives are not always drawn.
Parameter MIC: see the listing below.
endpoint name: MIC

>  <molecule>
COC(=O)N[C@H]1CC[C@H](NC2CCc3cc(-n4ccc(NC(=O)N5CCN(C(=O)C(C)(C)N)CC5)nc4=O)ccc3C2)C1 (stereo partly drawn) [Compound 45, Hydrochloride Salt]

>  <target entity>
E.faecalis (Ef)

>  <endpoint name>
MIC

>  <result>
> 32 µg/mL

$$$$
>  <molecule>
CC(C)(N)C(=O)N1CCN(C(=O)Nc2ccn(-c3ccc4c(c3)CCC(N3CCC(CCN)CC3)C4)c(=O)n2)CC1 (stereo not drawn) [Compound 42, hydrochloride salt]

>  <target entity>
E.faecalis (Ef)

>  <endpoint name>
MIC

>  <result>
> 32 µg/mL

$$$$
>  <molecule>
CC(C)(N)C(=O)N1CCN(C(=O)Nc2ccn(-c3ccc4c(c3)CCC(N[C@H]3C[C@@H](CN)C3)C4)c(=O)n2)CC1 (stereo partly drawn) [Compound 44, Hydrochloride Salt]

>  <target entity>
E.faecalis (Ef)

>  <endpoint name>
MIC

>  <result>
> 32 µg/mL

$$$$
>  <molecule>
C[C@](N)(CO)C(=O)N1CCN(C(=O)Nc2ccn(-c3ccc4c(c3)CCC(N[C@H]3CC[C@H](N)C3)C4)c(=O)n2)CC1 (stereo partly drawn) [Compound 24, Hydrochloride Salt]

>  <target entity>
E.faecalis (Ef)

>  <endpoint name>
MIC

>  <result>
> 32 µg/mL

$$$$
>  <molecule>
CC(C)(N)C(=O)N1CCN(C(=O)Nc2ccn(-c3ccc4c(c3)CCC(N[C@H]3C[C@H](CN)C3)C4)c(=O)n2)CC1 (stereo partly drawn) [Compound 41, Hydrochloride Salt]

>  <target entity>
E.faecalis (Ef)

>  <endpoint name>
MIC

>  <result>
> 32 µg/mL

$$$$
>  <molecule>
CC(C)(N)C(=O)N1CCN(C(=O)Nc2ccn(-c3ccc4c(c3)CCC(N[C@@H]3CC[C@@H](N)C3)C4)c(=O)n2)CC1 (stereo partly drawn) [Compound 25, Hydrochloride Salt]

>  <target entity>
E.faecalis (Ef)

>  <endpoint name>
MIC

>  <result>
> 32 µg/mL

$$$$

* * *

Parameter pIC50: see the listing below.
Tested on: E.coli S30 extract (bacterial protein synthesis)
Assay: E.coli S30 extract: inhibition of bacterial protein synthesis (luciferase)
Type: biochemical
Details: 37° C. for 1 hour
pIC50: −log10 of the molar value. Counter-ions that a name gives are not always drawn.

>  <compound>
CC(C)(N)C(=O)N1CCN(C(=O)Nc2ccn(-c3ccc4c(c3)CCC(N3CC[C@@H](CN)C3)C4)c(=O)n2)CC1 (some centres unmarked) [Compound 4, Hydrochloride Salt]

>  <pIC50>
> 6.30

$$$$
>  <compound>
CC(C)(N)C(=O)N1CCN(C(=O)Nc2ccn(-c3ccc4c(c3)CCC(N3CCC(CCN)CC3)C4)c(=O)n2)CC1 (centres unmarked) [Compound 42, hydrochloride salt]

>  <pIC50>
≤ 6.00

$$$$
>  <compound>
CC(C)(N)C(=O)N1CCN(C(=O)Nc2ccn(-c3ccc4c(c3)CC(NC[C@H]3C[C@H](N)C3)C4)c(=O)n2)CC1 (some centres unmarked) [Compound 37, Hydrochloride Salt]

>  <pIC50>
> 6.30

$$$$
>  <compound>
CC(C)(N)C(=O)N1CCN(C(=O)Nc2ccn(-c3ccc4c(c3)OCC(N3CC[C@H](CN)C3)C4)c(=O)n2)CC1 (some centres unmarked) [Compound 18, Hydrochloride Salt]

>  <pIC50>
≤ 6.00

$$$$
>  <compound>
CC(C)(N)C(=O)N1CCN(C(=O)Nc2ccn(-c3ccc4c(c3)CCC(N3CC(CN)C3)C4)c(=O)n2)CC1 (centres unmarked) [Compound 40, Hydrochloride Salt]

>  <pIC50>
> 6.30

$$$$
>  <compound>
CC(C)(N)C(=O)N1CCN(C(=O)Nc2ccn(-c3ccc4c(c3)CCC(N[C@H]3C[C@H](N)C3)C4)c(=O)n2)CC1 (some centres unmarked) [Compound 29, Hydrochloride Salt]

>  <pIC50>
> 6.30

$$$$
>  <compound>
CC(C)(N)C(=O)N1CCN(C(=O)Nc2ccn(-c3ccc4c(c3)CCC(N[C@H]3C[C@@H](N)C3)C4)c(=O)n2)CC1 (some centres unmarked) [Compound 30, Hydrochloride Salt]

>  <pIC50>
> 6.30

$$$$
>  <compound>
CC(C)(N)C(=O)N1CCN(C(=O)Nc2ccn(-c3ccc4c(c3)CC(N[C@H]3CC[C@H](N)C3)C4)c(=O)n2)CC1 (some centres unmarked) [Compound 36, Hydrochloride Salt]

>  <pIC50>
> 6.30

$$$$
>  <compound>
CC(C)(N)C(=O)N1CCN(C(=O)Nc2ccn(-c3ccc4c(c3)CN([C@H]3CC[C@H](N)CC3)C4)c(=O)n2)CC1 [Compound 46, hydrochloride salt]

>  <pIC50>
> 6.30

$$$$
>  <compound>
CC(C)(N)C(=O)N1CCN(C(=O)Nc2ccn(-c3ccc4c(c3)OCC(N3C[C@@H]5[C@@H](CN)[C@@H]5C3)C4)c(=O)n2)CC1 (some centres unmarked) [Compound 12, hydrochloride salt]

>  <pIC50>
≤ 6.00

$$$$
>  <compound>
CC(C)(N)C(=O)N1CCN(C(=O)Nc2ccn(-c3ccc4c(c3)OCC(N3CC[C@@H](CN)C3)C4)c(=O)n2)CC1 (some centres unmarked)

>  <pIC50>
≤ 6.00

$$$$

* * *

Parameter pIC50: see the listing below.
Tested on: E.coli S30 extract (bacterial protein synthesis)
Assay: E.coli S30 extract: inhibition of bacterial protein synthesis (luciferase)
Format: biochemical
Conditions: 37° C. for 1 hour
pIC50: −log10 of the molar value. Structures can show the parent of a compound that is named as a salt.
endpoint name: pIC50

>  <molecule>
CC(C)(N)C(=O)N1CCN(C(=O)Nc2ccn(-c3ccc4c(c3)OCC(N3C[C@@H]5[C@@H](N)[C@@H]5C3)C4)c(=O)n2)CC1 (some centres unmarked) [Compound 13, Hydrochloride Salt]

>  <endpoint name>
pIC50

>  <result>
≤ 6.00

$$$$
>  <molecule>
CN(C1CCc2cc(-n3ccc(NC(=O)N4CCN(C(=O)C(C)(C)N)CC4)nc3=O)ccc2C1)C1CC2(CC(N)C2)C1 (centres unmarked) [Compound 11, Hydrochloride Salt]

>  <endpoint name>
pIC50

>  <result>
6.00 to 6.30

$$$$
>  <molecule>
CC(C)(N)C(=O)N1CCN(C(=O)Nc2ccn(-c3ccc4c(c3)CCC(N3C[C@@H]5[C@@H](N)[C@@H]5C3)C4)c(=O)n2)CC1 (some centres unmarked) [Compound 1, Hydrochloride Salt]

>  <endpoint name>
pIC50

>  <result>
≤ 6.00

$$$$
>  <molecule>
CC(C)(N)C(=O)N1CCN(C(=O)Nc2ccn(-c3ccc4c(c3)CCC(N[C@H]3CC[C@H](N)C3)C4)c(=O)n2)CC1 (some centres unmarked) [Compound 9, hydrochloride salt]

>  <endpoint name>
pIC50

>  <result>
> 6.30

$$$$
>  <molecule>
CC(C)(N)C(=O)N1CCN(C(=O)Nc2ccn(-c3ccc4c(c3)CCC(N[C@@H]3CC[C@@H](N)C3)C4)c(=O)n2)CC1 (some centres unmarked) [Compound 25, Hydrochloride Salt]

>  <endpoint name>
pIC50

>  <result>
> 6.30

$$$$
>  <molecule>
CC(C)(N)C(=O)N1CCN(C(=O)Nc2ccn(-c3ccc4c(c3)CCC(N[C@H]3CC[C@H](N)CC3)C4)c(=O)n2)CC1 (some centres unmarked) [Compound 7, Hydrochloride Salt]

>  <endpoint name>
pIC50

>  <result>
> 6.30

$$$$
>  <molecule>
CC(C)(N)C(=O)N1CCN(C(=O)Nc2ccn(-c3ccc4c(c3)CCC(N3CCC(N)CC3)C4)c(=O)n2)CC1 (centres unmarked) [Compound 2, Hydrochloride Salt]

>  <endpoint name>
pIC50

>  <result>
> 6.30

$$$$
>  <molecule>
CC(C)(N)C(=O)N1CCN(C(=O)Nc2ccn(-c3ccc4c(c3)CCC(N[C@H]3CC[C@H](N)C3)C4)c(=O)n2)CC1 (stereo in doubt) [Compound 10, Hydrochloride Salt]

>  <endpoint name>
pIC50

>  <result>
> 6.30

$$$$
>  <molecule>
CC(C)(N)C(=O)N1CCN(C(=O)Nc2ccn(-c3ccc4c(c3)CCC(NC3CC5(CC(N)C5)C3)C4)c(=O)n2)CC1 (centres unmarked) [Compound 8, Hydrochloride Salt]

>  <endpoint name>
pIC50

>  <result>
> 6.30

$$$$
>  <molecule>
CC(C)(N)C(=O)N1CCN(C(=O)Nc2ccn(-c3ccc4c(c3)CCC(N[C@H]3CC[C@H](N)C3)C4)c(=O)n2)CC1 (single isomer, unassigned) [Compound 28, Hydrochloride Salt]

>  <endpoint name>
pIC50

>  <result>
> 6.30

$$$$
>  <molecule>
CCN(C1CCc2cc(-n3ccc(NC(=O)N4CCN(C(=O)C(C)(C)N)CC4)nc3=O)ccc2C1)[C@H]1CC[C@H](N)CC1 (some centres unmarked) [Compound 16, hydrochloride salt]

>  <endpoint name>
pIC50

>  <result>
> 6.30

$$$$

Data credit: patent US20230278987A1
